Provenance of the data: patent US20260207559A1

- test: in vivo
- settings: rat, in vivo

smiles-code	bioavailability
Cc1c(CO)cccc1[C@H](C)c1c[nH]cn1	≤ 34%
